# experimentalTarget: His-tagged Proliferating Cell Nuclear Antigen (PCNA) (human, UniProt P12004 1-261)
# Sequence (P12004 whole entry): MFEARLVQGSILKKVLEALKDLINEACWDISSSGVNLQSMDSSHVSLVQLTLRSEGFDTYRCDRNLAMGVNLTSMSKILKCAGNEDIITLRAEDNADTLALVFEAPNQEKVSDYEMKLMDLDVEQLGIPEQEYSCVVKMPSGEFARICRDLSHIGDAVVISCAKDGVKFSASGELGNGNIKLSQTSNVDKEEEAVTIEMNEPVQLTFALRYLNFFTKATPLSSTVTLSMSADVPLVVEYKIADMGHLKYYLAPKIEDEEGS
# testDetails: ITC
parameter: pKd
Give bare numbers, as −log10 of the molar value.

Some entries whose results are on file:
binder: QGSTQGRLDDFFKVT (Exact limits are in the supplement. Window is the 15-mer homologous to ZRANB3 515-529, aligned on Q337. Termini chemistry not stated.) [FEN1 PIP box peptide used for ITC]
experimentalResult: 4.76
//
binder: NTAKKGLIDYYLMPS (Exact limits are in the supplement. Window is the 15-mer homologous to ZRANB3 515-529 (equal lengths stated); the PIP box KGLIDYYL is 421-428 in 715-aa numbering, +25 in the 740-aa entry. Check residues are not named in the paper. Termini chemistry not stated.) [Polι PIP box peptide used for ITC]
experimentalResult: 5.26

// switching to the query binder
Request: Returns the measured pKd for the input binder. Input: RKRRQTSMTDFYHSK (Exact limits are in the supplement. Window is the 15-mer homologous to ZRANB3 515-529, aligned on Q144. Check residues are not named in the paper. Termini chemistry not stated.) [p21 PIP box peptide used for ITC]
Response: 6.56

Every entry's value here was drawn from paper PMC5481773.
